Kindly state pIC50 for each of the entries shown.
assay_system: UniProt:P51570
Sequence (P51570 whole entry): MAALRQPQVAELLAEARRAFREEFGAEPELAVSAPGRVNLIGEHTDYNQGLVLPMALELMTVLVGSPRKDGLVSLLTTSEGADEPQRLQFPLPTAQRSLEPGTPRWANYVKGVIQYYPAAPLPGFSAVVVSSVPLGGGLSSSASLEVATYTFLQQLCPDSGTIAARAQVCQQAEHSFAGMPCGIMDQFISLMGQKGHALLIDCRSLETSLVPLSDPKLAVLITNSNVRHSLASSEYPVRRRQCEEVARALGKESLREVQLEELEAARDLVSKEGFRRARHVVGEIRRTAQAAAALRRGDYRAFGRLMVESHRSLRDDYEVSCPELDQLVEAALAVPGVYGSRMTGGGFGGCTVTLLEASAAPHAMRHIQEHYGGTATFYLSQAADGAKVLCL
assay: Inhibition of recombinant human GALK1 using galactose as substrate incubated for 1 hrs in the presence of ATP by Kinase-Glo reagent based luminescence assay
Please treat pIC50 as minus the base-10 logarithm of the molar concentration.

Can you look up the measured pIC50 of CC1=C(C(=O)NCc2cncn2C)C(c2ccccc2Cl)N=C(Nc2nc3ccccc3o2)N1 (stereo not drawn) for me?
5.80

Can you look up the measured pIC50 of CC1=C(C(=O)Nc2cc(C(=O)O)ccn2)C(c2ccccc2Cl)N=C(Nc2nc3cc(F)ccc3o2)N1 (stereo not drawn) for me?
5.50

Can you look up the measured pIC50 of CC1=C(C(=O)NCc2ccccc2O)C(c2ccccc2Cl)N=C(Nc2nc3ccccc3o2)N1 (stereo not drawn) for me?
5.20

The reported measurements were obtained from BindingDB's records for PubMed 34491744.
